Measurement target: Prostaglandin D2 receptor (Homo sapiens, UniProt Q13258)
Sequence (Q13258 whole entry): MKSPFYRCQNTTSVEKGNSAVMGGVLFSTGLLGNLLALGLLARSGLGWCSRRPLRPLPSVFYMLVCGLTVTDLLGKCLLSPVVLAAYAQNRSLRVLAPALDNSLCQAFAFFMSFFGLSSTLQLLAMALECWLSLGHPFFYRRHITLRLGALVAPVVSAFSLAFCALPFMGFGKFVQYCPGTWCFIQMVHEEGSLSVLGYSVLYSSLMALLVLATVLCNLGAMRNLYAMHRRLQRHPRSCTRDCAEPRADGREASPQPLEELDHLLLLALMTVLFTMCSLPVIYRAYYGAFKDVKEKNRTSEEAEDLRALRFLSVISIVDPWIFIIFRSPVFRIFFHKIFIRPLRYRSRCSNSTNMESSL
Assay text: Inhibition of [3H]PGD-2 specific binding to Prostaglandin D2 receptor from human platelet membranes
Listed compounds paired with reported IC50
Answer in nM, number only, no unit symbol.

CC1(C)[C@H]2C[C@H](C/C=C\CCCC(=O)O)[C@@H](NS(=O)(=O)c3ccc(/N=N/c4ccccc4)cc3)[C@@H]1C2 = 1300
CC1(C)[C@H]2C[C@H](C/C=C\CCCC(=O)O)[C@@H](NC(=O)c3ccc4oc5ccccc5c4c3)[C@@H]1C2 = 32
COc1cc2c(cc1S(=O)(=O)N[C@@H]1[C@@H]3CC[C@@H](C3)[C@H]1C/C=C\CCCC(=O)O)oc1ccccc12 = 27

Query :: Hello, please tell me recorded IC50 for this one: O=C(O)CCC/C=C\C[C@@H]1[C@H]2CC[C@H](C2)[C@H]1NS(=O)(=O)c1ccc(/N=N/c2ccccc2)cc1
Result :: 27

###

Tested on: Cavia porcellus
Assay text: Inhibition of antigen-induced increase in intranasal pressure in actively sensitized guinea pigs at 1 mg/kg (iv)
Assay type: functional
Experimental endpoint: inhibition in vivo at 1 mg/kg (%)
Answer in %, number only, no unit symbol.

Some solved entries appear below for comparison.
COc1cc2c(cc1S(=O)(=O)N[C@@H]1[C@@H]3CC[C@@H](C3)[C@H]1C/C=C\CCCC(=O)O)oc1ccccc12 = 80
O=C(O)CCC/C=C\C[C@@H]1[C@H]2CC[C@H](C2)[C@H]1NS(=O)(=O)c1ccc2ccccc2c1 = 54
CC1(C)[C@H]2C[C@H](C/C=C\CCCC(=O)O)[C@@H](NC(=O)c3csc4ccc(O)cc34)[C@@H]1C2 = 78
O=C(O)CCC/C=C\C[C@@H]1[C@H]2CC[C@H](C2)[C@H]1NS(=O)(=O)c1ccc2cc(-c3ccccc3)[nH]c2c1 = 60
O=C(O)CCC/C=C\C[C@@H]1[C@H]2CC[C@H](C2)[C@H]1NS(=O)(=O)c1ccc(C#Cc2ccccc2)cc1 = 25
O=C(O)CCC/C=C\C[C@@H]1[C@H]2CC[C@H](C2)[C@H]1NS(=O)(=O)c1ccc(Oc2ccccc2)cc1 = 25
O=C(O)CCC/C=C\C[C@H]1[C@@H]2CC[C@@H](C2)[C@@H]1NS(=O)(=O)c1ccc2ccccc2c1 = 6
CC1(C)[C@H]2C[C@H](C/C=C\CCCC(=O)O)[C@@H](NC(=O)c3ccsc3)[C@@H]1C2 = 77

Let us move to another entry and its inhibition in vivo at 1 mg/kg.
Query :: System Cavia porcellus. Read-out inhibition in vivo at 1 mg/kg. Item O=C(O)CCC/C=C\C[C@@H]1[C@H]2CC[C@H](C2)[C@H]1NS(=O)(=O)c1ccc2oc3ccccc3c2c1 . Report value.
Result :: 82

###

Listed compounds paired with reported pIC50
Measurement target: Prostacyclin receptor (Homo sapiens, UniProt P43119)
Sequence (P43119 whole entry): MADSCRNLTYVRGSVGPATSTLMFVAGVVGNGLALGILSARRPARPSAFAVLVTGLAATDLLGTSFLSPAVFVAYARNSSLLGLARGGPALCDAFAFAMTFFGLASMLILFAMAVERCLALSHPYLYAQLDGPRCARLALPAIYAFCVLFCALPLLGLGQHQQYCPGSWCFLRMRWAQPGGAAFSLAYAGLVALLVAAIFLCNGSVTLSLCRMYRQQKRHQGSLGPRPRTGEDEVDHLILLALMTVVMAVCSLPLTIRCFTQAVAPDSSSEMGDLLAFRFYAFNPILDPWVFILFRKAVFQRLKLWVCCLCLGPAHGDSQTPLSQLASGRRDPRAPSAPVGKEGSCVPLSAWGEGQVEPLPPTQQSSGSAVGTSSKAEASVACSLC
Assay text: Inhibition of cAMP formation by carbacyclin in Prostaglandin I2 receptor (IP) assay
pIC50: −log10 of the molar value.

Some solved entries appear below for comparison.
CC1(C)[C@H]2C[C@H](C/C=C\CCCC(=O)O)[C@@H](NC(=O)c3ccsc3)[C@@H]1C2 = < 5.00
CC1(C)[C@H]2C[C@H](C/C=C\CCCC(=O)O)[C@@H](NC(=O)c3csc4ccc(O)cc34)[C@@H]1C2 = < 5.00
CC1(C)[C@H]2C[C@H](C/C=C\CCCC(=O)O)[C@@H](NC(=O)c3ccc[nH]3)[C@@H]1C2 = < 5.00
O=C(O)CCC/C=C\C[C@@H]1[C@H]2CC[C@H](C2)[C@H]1NC(=O)c1ccc(/N=N/c2ccccc2)cc1 = 5.85
O=C(O)CCC/C=C\C[C@@H]1[C@H]2CC[C@H](C2)[C@H]1NS(=O)(=O)c1ccc(/N=N/c2ccccc2)cc1 = < 5.00

Query :: System Prostacyclin receptor (Homo sapiens, UniProt P43119). Read-out pIC50. Item CC1(C)[C@H]2C[C@H](C/C=C\CCCC(=O)O)[C@@H](NS(=O)(=O)c3ccc4oc5ccccc5c4c3)[C@@H]1C2 . Report value.
Result :: < 5.00

Query :: System Prostacyclin receptor (Homo sapiens, UniProt P43119). Read-out pIC50. Item O=C(O)CCC/C=C\C[C@@H]1[C@H]2CC[C@H](C2)[C@H]1NS(=O)(=O)c1ccc2oc3cc([N+](=O)[O-])ccc3c2c1 . Report value.
Result :: 5.35

###

Listed compounds paired with reported pIC50
Measurement target: Prostaglandin D2 receptor (Homo sapiens, UniProt Q13258)
Assay text: Inhibition of cAMP formation evoked by the prostaglandin D2 receptor in human platelets
Format: functional
Please note pIC50 is a logarithmic value: minus log10 of concentration in mol/L. Answer with that number alone.

CC1(C)[C@H]2C[C@H](C/C=C\CCCC(=O)O)[C@@H](NC(=O)c3ccc4oc5ccccc5c4c3)[C@@H]1C2 = 6.66
CC1(C)[C@H]2C[C@H](C/C=C\CCCC(=O)O)[C@@H](NC(=O)c3csc4ccc(O)cc34)[C@@H]1C2 = 9.00
O=C(O)CCC/C=C\C[C@@H]1[C@H]2CC[C@H](C2)[C@H]1NS(=O)(=O)c1ccc2oc3cc([N+](=O)[O-])ccc3c2c1 = 6.60

Let us move to another entry and its pIC50.
Query :: Hello, please tell me recorded pIC50 for this one: O=C(O)CCC/C=C\C[C@@H]1[C@H]2CC[C@H](C2)[C@H]1NS(=O)(=O)c1ccc(Oc2ccccc2)cc1
Result :: 6.11

###

Measurement target: Prostaglandin D2 receptor (Homo sapiens, UniProt Q13258)
Assay text: Inhibition of [3H]PGD-2 specific binding to Prostaglandin D2 receptor from human platelet membranes
Listed molecules paired with reported pIC50
Please note pIC50 is a logarithmic value: minus log10 of concentration in mol/L. Answer with that number alone.

Some solved entries appear below for comparison.
O=C(O)CCC/C=C\C[C@@H]1[C@H]2CC[C@H](C2)[C@H]1NC(=O)c1ccc(/N=N/c2ccccc2)cc1 = 5.52
O=C(O)CCC/C=C\C[C@@H]1[C@H]2CC[C@H](C2)[C@H]1NS(=O)(=O)c1ccc(C#Cc2ccccc2)cc1 = 8.07
CC1(C)[C@H]2C[C@H](C/C=C\CCCC(=O)O)[C@@H](NC(=O)c3ccc(/N=N/c4ccccc4)cc3)[C@@H]1C2 = 6.27

Let us move to another entry and its pIC50.
Query :: Hello, please tell me recorded pIC50 for this one: CC1(C)[C@H]2C[C@H](C/C=C\CCCC(=O)O)[C@@H](NC(=O)c3ccc[nH]3)[C@@H]1C2
Result :: 7.49

###

Measurement target: Prostaglandin D2 receptor (Homo sapiens, UniProt Q13258)
Assay text: Inhibition of cAMP formation evoked by the prostaglandin D2 receptor in human platelets
Assay type: functional
Each record is given Yes if its reported IC50 is strictly below 200 nM. Records at or above 200 nM are given No.

# count of solved cases: 5
CC1(C)[C@H]2C[C@H](C/C=C\CCCC(=O)O)[C@@H](NC(=O)c3ccc(/N=N/c4ccccc4)cc3)[C@@H]1C2 = No
O=C(O)CCC/C=C\C[C@@H]1[C@H]2CC[C@H](C2)[C@H]1NS(=O)(=O)c1ccc(C#Cc2ccccc2)cc1 = No
O=C(O)CCC/C=C\C[C@@H]1[C@H]2CC[C@H](C2)[C@H]1NS(=O)(=O)c1ccc(/N=N/c2ccccc2)cc1 = No
O=C(O)CCC/C=C\C[C@@H]1[C@H]2CC[C@H](C2)[C@H]1NC(=O)c1ccc(/N=N/c2ccccc2)cc1 = No
CC1(C)[C@H]2C[C@H](C/C=C\CCCC(=O)O)[C@@H](NC(=O)c3csc4ccc(F)cc34)[C@@H]1C2 = Yes

Query :: Dear colleague, could you confirm whether IC50 of CC1(C)[C@H]2C[C@H](C/C=C\CCCC(=O)O)[C@@H](NC(=O)c3ccccc3)[C@@H]1C2 falls below 200 nM? Thanks.
Result :: No

Query :: Dear colleague, could you confirm whether IC50 of CC1(C)[C@H]2C[C@H](C/C=C\CCCC(=O)O)[C@@H](NC(=O)c3cccc4ccsc34)[C@@H]1C2 falls below 200 nM? Thanks.
Result :: Yes

###

Measurement target: Prostaglandin D2 receptor (Homo sapiens, UniProt Q13258)
Assay text: Inhibition of [3H]PGD-2 specific binding to Prostaglandin D2 receptor from human platelet membranes
Listed molecules paired with reported IC50
Answer in µM, number only, no unit symbol.

Some solved entries appear below for comparison.
O=C(O)CCC/C=C\C[C@@H]1[C@H]2CC[C@H](C2)[C@H]1NS(=O)(=O)c1ccc2oc3cc([N+](=O)[O-])ccc3c2c1 = 1.1
CC1(C)[C@H]2C[C@H](C/C=C\CCCC(=O)O)[C@@H](NC(=O)c3ccsc3)[C@@H]1C2 = 1.6

Query :: Hello, please tell me recorded IC50 for this one: O=C(O)CCC/C=C\C[C@@H]1[C@H]2CC[C@H](C2)[C@H]1NS(=O)(=O)c1ccc2ccccc2c1
Result :: 1.2

Query :: Hello, please tell me recorded IC50 for this one: CC1(C)[C@H]2C[C@H](C/C=C\CCCC(=O)O)[C@@H](NS(=O)(=O)c3ccc4oc5ccccc5c4c3)[C@@H]1C2
Result :: 0.78

Query :: Hello, please tell me recorded IC50 for this one: CC1(C)[C@H]2C[C@H](C/C=C\CCCC(=O)O)[C@@H](NC(=O)c3ccccc3)[C@@H]1C2
Result :: 5.2

Query :: Hello, please tell me recorded IC50 for this one: O=C(O)CCC/C=C\C[C@@H]1[C@H]2CC[C@H](C2)[C@H]1NS(=O)(=O)c1ccc(Oc2ccccc2)cc1
Result :: 0.72

Query :: Hello, please tell me recorded IC50 for this one: O=C(O)CCC/C=C\C[C@@H]1[C@H]2CC[C@H](C2)[C@H]1NS(=O)(=O)c1ccc(-c2ccccc2)cc1
Result :: 0.6

Query :: Hello, please tell me recorded IC50 for this one: O=C(O)CCC/C=C\C[C@@H]1[C@H]2CC[C@H](C2)[C@H]1NS(=O)(=O)c1ccc2cc(-c3ccccc3)[nH]c2c1
Result :: 0.047

Query :: Hello, please tell me recorded IC50 for this one: O=C(O)CCC/C=C\C[C@H]1[C@@H]2CC[C@@H](C2)[C@@H]1NS(=O)(=O)c1ccc2ccccc2c1
Result :: 4.9

# credit: ChEMBL document CHEMBL1130354
